# Experiment notes: Drug level in urine of Sprague-Dawley rat treated with [14C]PF-00734200 at 5 mg/kg, po administered as single dose by LC-MS/MS method
# Assay type: ADME, organism-based
# Design: dose 5 mg/kg, route oral
# Experimental parameters: in vivo
Drug uptake reference
Property measured: Drug uptake (%)

* O=C(O)[C@H]1O[C@@H](Oc2cnc(N3CCN([C@@H]4CN[C@H](C(=O)N5CCC(F)(F)C5)C4)CC3)nc2)[C@H](O)[C@@H](O)[C@@H]1O | 2.9
* O=C([C@@H]1C[C@H](N2CCN(c3ncc(O)cn3)CC2)CN1)N1CCC(F)(F)C1 | 7.3
* O=C([C@@H]1C[C@H](N2CCN(c3ncccn3)CC2)CN1)N1CCC(F)(F)C1 | 11
* N=C(N)N1CCN([C@@H]2CN[C@H](C(=O)N3CCC(F)(F)C3)C2)CC1 | 3.1
* c1cnc(N2CCNCC2)nc1 | 1.4
* O=C(O)[C@@H]1C[C@H](N2CCN(c3ncccn3)CC2)CN1 | 3.2
